Target: IDO (SKOV-3 cells) (Homo sapiens)
Construct: This assay utilised cancer cells which expressed either TDO or IDO; host or cells: SKOV-3 ovary adenocarcinoma cells, IFNγ-induced
Assay: IDO cell-based assay (SKOV-3, IFNγ-induced), kynurenine production
Details: SKOV-3 ovary adenocarcinoma cells, IFNγ 500 ng/ml, 500 μM L-Trp, 48 h, kynurenine by absorbance at 490 nm
Text: Two different types of assay were employed: 1. A TDO and IDO biochemical coupled assay which utilised recombinantly produced and purified TDO and IDO enzymes in combination with the enzyme formamidase. This coupled enzyme system allowed conversion of N-formylkynurenine produced by TDO or IDO activity to kynurenine which was then quantified by fluorescence following addition of Erhlich's Reagent. 2. […]
test-readout: IDO cellular assay (SKOV3) pIC50

CC(CN(C)S(C)(=O)=O)NC(=O)c1cc2cc(Cl)ccc2[nH]1 (stereo not shown) :: + (+ = pIC50 4.50-<5.00)
CC(NC(=O)c1cc2cc(F)ccc2[nH]1)c1cccnc1 (stereo not shown) :: + (+ = pIC50 4.50-<5.00)
C[C@@H](NC(=O)c1cc2c([nH]1)CCCC2)c1ccccc1 :: + (+ = pIC50 4.50-<5.00)
Cc1cccc2[nH]c(C(=O)NC(C)c3ccccc3)cc12 (stereo not shown) :: +++ (+++ = pIC50 ≥5.50)
CC(NC(=O)c1cc2cc(Cl)ccc2[nH]1)c1ccn(C)n1 (stereo not shown) :: + (+ = pIC50 4.50-<5.00)
Cc1c(C2(NC(=O)c3cc4cc(Cl)ccc4[nH]3)CC2)cnn1C :: +++ (+++ = pIC50 ≥5.50)

// sample COc1ccc(-n2cc(C(C)NC(=O)c3cc4cc(Cl)ccc4[nH]3)cn2)cc1OC (stereo not shown) , its IDO cellular assay (SKOV3) pIC50 was +++ (+++ = pIC50 ≥5.50)

Memo: CC(NC(=O)c1cc2cc(Cl)ccc2[nH]1)c1nc(-c2ccccc2)no1 (stereo not shown) , reported IDO cellular assay (SKOV3) pIC50: +++ (+++ = pIC50 ≥5.50)

Record summary for `COc1ccc(C2(NC(=O)c3cc4cc(Cl)ccc4[nH]3)CC2)cc1` : reported IDO cellular assay (SKOV3) pIC50 = +++ (+++ = pIC50 ≥5.50)

The measured IDO cellular assay (SKOV3) pIC50 associated with `C[C@@H](NC(=O)c1cc2cc(Cl)cnc2[nH]1)c1ccccc1` reads + (+ = pIC50 4.50-<5.00)

---

Target: IDO (SKOV-3 cells) (Homo sapiens, UniProt P14902)
Construct: This assay utilised cancer cells which expressed either TDO or IDO; host or cells: SKOV-3 ovary adenocarcinoma cells, IFNγ-induced
Sequence (P14902 whole entry): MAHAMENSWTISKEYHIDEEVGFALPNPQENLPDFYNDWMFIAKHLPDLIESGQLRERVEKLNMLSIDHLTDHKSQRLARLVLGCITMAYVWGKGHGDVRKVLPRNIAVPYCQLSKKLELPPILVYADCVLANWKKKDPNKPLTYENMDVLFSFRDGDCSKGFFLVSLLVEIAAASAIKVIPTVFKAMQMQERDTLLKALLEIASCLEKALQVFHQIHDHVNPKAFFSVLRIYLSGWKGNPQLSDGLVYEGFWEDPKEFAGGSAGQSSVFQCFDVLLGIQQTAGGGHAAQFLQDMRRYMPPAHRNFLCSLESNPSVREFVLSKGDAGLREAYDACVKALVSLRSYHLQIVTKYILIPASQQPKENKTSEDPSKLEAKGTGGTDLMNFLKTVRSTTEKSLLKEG
Assay: IDO cell-based assay (SKOV-3, IFNγ-induced), kynurenine production
Details: SKOV-3 ovary adenocarcinoma cells, IFNγ 500 ng/ml, 500 μM L-Trp, 48 h, kynurenine by absorbance at 490 nm
test-readout: IDO cellular assay (SKOV3) pIC50

Below are worked cases with known answers.
O=C(NC1CCc2ccccc21)c1cc2ccccc2[nH]1 (stereo not shown) [Compound 6] :: + (+ = pIC50 4.50-<5.00)
C[C@H](NC(=O)c1cc2c([nH]1)CCCC2)c1ccccc1 [Compound 55] :: − (− = pIC50 <4.50)
CC(Cc1cnn(C)c1)NC(=O)c1cc2cc(Cl)ccc2[nH]1 (stereo not shown) [Compound 267] :: +++ (+++ = pIC50 ≥5.50)
Cc1ccc2[nH]c(C(=O)NC(C)c3ccccc3)cc2c1 (stereo not shown) [Compound 26] :: +++ (+++ = pIC50 ≥5.50)
CCc1ccc2[nH]c(C(=O)NC3(c4cnn(C)c4)CC3)cc2c1 [Compound 264] :: +++ (+++ = pIC50 ≥5.50)

Lab note: measured IDO cellular assay (SKOV3) pIC50 of Cc1ncc(C(C)NC(=O)c2cc3cc(C#N)ccc3[nH]2)o1 (stereo not shown) [Compound 229] was +++ (+++ = pIC50 ≥5.50)

So, CC(NC(=O)c1cc2cc(Cl)ccc2[nH]1)c1cnn(-c2ccccc2F)c1 (stereo not shown) [Compound 115] ? Its IDO cellular assay (SKOV3) pIC50 was +++ (+++ = pIC50 ≥5.50)

Form: molecule = C[C@@H](NC(=O)c1cc2ccc(O)cc2[nH]1)c1ccccc1 [Compound 185] ; IDO cellular assay (SKOV3) pIC50 = + (+ = pIC50 4.50-<5.00)

Noted for O=C(NC(CO)c1ccccc1)c1cc2cc(Cl)ccc2[nH]1 (stereo not shown) [Compound 92] : its IDO cellular assay (SKOV3) pIC50 reads +++ (+++ = pIC50 ≥5.50)

Briefly, IDO cellular assay (SKOV3) pIC50 measured for CCOc1ccc2[nH]c(C(=O)N[C@H](C)c3ccccc3)cc2c1 [Compound 270] : +++ (+++ = pIC50 ≥5.50)

molecule CC(NC(=O)c1cc2ccc(C(N)=O)cc2[nH]1)c1ccccc1 (stereo not shown) [Compound 89] , IDO cellular assay (SKOV3) pIC50 observed: − (− = pIC50 <4.50)

Form: molecule = CC(C)Oc1ccc2[nH]c(C(=O)NC3(c4cnn(C)c4)CC3)cc2c1 [Compound 265] ; IDO cellular assay (SKOV3) pIC50 = +++ (+++ = pIC50 ≥5.50)
